system: MAP3K3; conditions: concentration: 1 μM,replicates: in singlicate; n = 1;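 also: KINOMEscan kinase panel screen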
# reported %Inh; entries follow
Respond numerically; units are % and should not be typed.

Lab note: need %Inh for Cc1cccc(-c2nc(Nc3ccncc3)c3sccc3n2)n1 on MAP3K3, anyone have it?
28

Lab note: need %Inh for Cc1ccc(CC(=O)N2CCc3cc(-c4cn(C)c5ncnc(N)c45)ccc32)cc1 on MAP3K3, anyone have it?
22

In the following, a different compound is considered.
Lab note: need %Inh for Cn1ccc2ncnc(Oc3ccc(NC(=O)Nc4cncc(C(F)(F)F)c4)c(Cl)c3)c21 on MAP3K3, anyone have it?
0

----------
test system: BLK; conditions: concentration: 1 μM,replicates: in singlicate; n = 1
property-label: %Inh (%)
Respond numerically; units are % and should not be typed.

Lab note: need %Inh for CC(C)c1nc(-c2cccc(NS(=O)(=O)c3ccccc3)c2)c(-c2ccnc(Nc3ccc4c(c3)CN(C)CC4)n2)s1 on BLK, anyone have it?
99.6

Lab note: need %Inh for Nc1nccc(-c2ccc3c(N)n[nH]c3c2)n1 on BLK, anyone have it?
25

----------
system: NLK; conditions: concentration: 1 μM,replicates: in singlicate; n = 1
property-label: %Inh (%)
Respond numerically; units are % and should not be typed.

Given Cc1n[nH]c2cc(Nc3ccnc(Nc4cccc(CN5CCOCC5)c4)n3)ccc12 [GW682569] , state its recorded %Inh.
18

***
Given O=C(Nc1n[nH]c2cc(-c3ccco3)ccc12)C1CC1 [SB-737447] , state its recorded %Inh.
4

----------
# reported %Inh; entries follow
system: STK39; conditions: concentration: 1 μM,replicates: in singlicate; n = 1
Respond numerically; units are % and should not be typed.

Given CS(=O)c1ccc(-c2coc3ccc(-c4n[nH]c(=O)o4)cc23)cc1 (centres unmarked) , state its recorded %Inh.
19

Given COC(=O)Nc1nc2cc(Oc3ccc(NC(=O)Nc4cc(C(F)(F)F)ccc4Cl)cc3)ccc2[nH]1.Cl [GW697465] , state its recorded %Inh.
13

Given C[C@@H](Oc1cc(-n2cnc3ccc(-c4ccncc4)cc32)sc1C(N)=O)c1ccccc1Cl [GSK483724] , state its recorded %Inh.
7

***
Given CCn1c(-c2nonc2N)nc2cncc(CNC3CCNCC3)c21.Cl [SB-747651] , state its recorded %Inh.
24

Given O=C(NCC1CC1)c1ccc(-c2cc(C(=O)NC3CC3)ccc2F)cc1 [GW810445] , state its recorded %Inh.
15

----------
test system: DAPK2; details: concentration: 1 μM,replicates: in singlicate; n = 1
# reported %Inh; entries follow
Respond numerically; units are % and should not be typed.

Given CCN1CCN(CCCC(=O)Nc2n[nH]c3nc(-c4ccc(O)cc4)c(Br)cc23)CC1 , state its recorded %Inh.
31

Given COc1cccc(CNC(=O)NC2CCN(c3ccnc(Nc4cc(OC)c(OC)c(OC)c4)n3)C2)c1 (stereo not drawn) , state its recorded %Inh.
0

Given O=C(Nc1cccc(C(F)(F)F)c1)c1cccc(Oc2ccc3nccn3n2)c1 , state its recorded %Inh.
0

Given CCCC(=O)Nc1n[nH]c2ncccc12 , state its recorded %Inh.
0

Given NC(=O)Nc1sc(-c2ccc(F)cc2)cc1C(N)=O , state its recorded %Inh.
0

----------
# reported %Inh; entries follow
test system: PLK2; conditions: concentration: 1 μM,replicates: in singlicate; n = 1
Respond numerically; units are % and should not be typed.

Use these answered entries as a reference point.
Given O=C1NCCc2[nH]c(-c3ccncc3)cc21 , state its recorded %Inh.
37

Given O=C(NCC1CC1)c1ccc(-c2cc(C(=O)NC3CC3)ccc2F)cc1 , state its recorded %Inh.
0

Given FC(F)(F)c1cc(Br)cc(Nc2nccc(-c3cnn4ncccc34)n2)c1 , state its recorded %Inh.
24

Given O=C(Nc1ccc(Oc2ccc3nc(NC(=O)C4CC4)cn3n2)c(F)c1)c1cccn(-c2ccccc2)c1=O , state its recorded %Inh.
0

Given O=C(Nc1cccc(Oc2ccc3nccn3n2)c1)Nc1cccc(C(F)(F)F)c1 , state its recorded %Inh.
0

***
Given CS(=O)(=O)Nc1ccc(-c2ccnc3[nH]ccc23)cc1 , state its recorded %Inh.
0

Given Cc1cccc2c(-c3ccncc3)c(-c3ccc(F)cc3)nn12.Cl , state its recorded %Inh.
0

Given Cn1ccc2ncnc(Oc3ccc(NC(=O)Nc4cnn(C(C)(C)C)c4)c(Cl)c3)c21 , state its recorded %Inh.
1

----------
test system: FYN; conditions: concentration: 1 μM,replicates: in singlicate; n = 1
Label fulfilled when %Inh >= 30%; otherwise not fulfilled.

For orientation, consider the following solved cases.
API: above_or_equal(metric=%Inh, cutoff=30%) for item COc1cc2c(Nc3ccc(NC(=O)c4ccccc4)cc3)ncnc2cc1OCCCN1CCOCC1
fulfilled

API: above_or_equal(metric=%Inh, cutoff=30%) for item C[C@@H](Oc1cc(-n2cnc3cc(-c4cnn(C)c4)ccc32)sc1C(N)=O)c1ccccc1Cl
fulfilled

API: above_or_equal(metric=%Inh, cutoff=30%) for item O=C(Nc1ccc(Oc2ccc3nc(NC(=O)C4CC4)cn3n2)c(F)c1)c1cccn(-c2ccccc2)c1=O
not fulfilled

***
API: above_or_equal(metric=%Inh, cutoff=30%) for item CN(c1ccccc1CNc1nc(Nc2ccc3c(c2)CC(=O)N3)ncc1C(F)(F)F)S(C)(=O)=O
not fulfilled

API: above_or_equal(metric=%Inh, cutoff=30%) for item Cc1cccc(-c2nc(Nc3ccncc3)c3sccc3n2)n1
not fulfilled

API: above_or_equal(metric=%Inh, cutoff=30%) for item Cc1cccc2c(-c3ccncc3)c(-c3ccc(F)cc3)nn12.Cl
not fulfilled

----------
test system: ERK8; construct: gene MAPK15; conditions: concentration: 1 μM,replicates: in singlicate; n = 1
# reported %Inh; entries follow
Respond numerically; units are % and should not be typed.

Use these answered entries as a reference point.
Given C[C@@H]1CNc2c(sc3ccc4nc(-c5ccncc5)ccc4c23)C(=O)N1 , state its recorded %Inh.
24

Given Cl.Nc1n[nH]c2cc(-c3ccccn3)ccc12 [GSK2189892] , state its recorded %Inh.
0

Given Cn1ccc2ncnc(Oc3ccc(NC(=O)Nc4cc(C(C)(C)C)on4)c(Cl)c3)c21 , state its recorded %Inh.
65

Given CS(=O)(=O)c1cccc(CNc2nc(Nc3ccc4c(c3)[C@@H]3C[C@@H]4CNC3=O)ncc2C(F)(F)F)c1 , state its recorded %Inh.
99.6

In the following, a different molecule is considered.
Given CCOC(=O)N1CCC(n2cnc(-c3ccc(F)cc3)c2-c2ccnc(N)n2)CC1 [SB-219952] , state its recorded %Inh.
0

----------
tested on: EIF2AK1; conditions: concentration: 1 μM,replicates: in singlicate; n = 1
property-label: %Inh (%)
Respond numerically; units are % and should not be typed.

Use these answered entries as a reference point.
Given C[C@@H](Oc1cc(-n2cnc3cc(-c4ccncc4)ccc32)sc1C(N)=O)c1ccccc1Cl , state its recorded %Inh.
18

Given O=C(NCC1CC1)c1ccc(-c2cc(C(=O)NC3CC3)ccc2F)cc1 , state its recorded %Inh.
0

Given CC(C)S(=O)(=O)N1CCN(Cc2ccc3c(c2)nc(NC(=O)c2ccsc2)n3C[C@H](O)c2ccccc2)CC1 , state its recorded %Inh.
1

Given Cn1ccc2ncnc(Oc3ccc(NC(=O)Nc4cccc(C(F)(F)F)c4)c(Cl)c3)c21 , state its recorded %Inh.
0

Given C[C@@H]1CNc2c(sc3ccc4nc(-c5ccc(O)cc5)ccc4c23)C(=O)N1 , state its recorded %Inh.
0

***
Given CCN1CCN(CCCC(=O)Nc2n[nH]c3nc(-c4ccc(O)cc4)c(Br)cc23)CC1 , state its recorded %Inh.
71

Given NC(=O)Nc1sc(-c2ccc(F)cc2)cc1C(N)=O , state its recorded %Inh.
0

Given CCCC(=O)Nc1n[nH]c2ncccc12 , state its recorded %Inh.
0

Given C[C@@H]1CNc2c(sc3ccc4nc(-c5ccncc5)ccc4c23)C(=O)N1 , state its recorded %Inh.
12

Given O=C(Nc1ccccc1)c1cccc(Oc2ccc3nccn3n2)c1 , state its recorded %Inh.
0

Given CN(c1ccc2c(c1)nc(NCc1ccc(F)cc1)n2C)c1ccnc(Nc2ccc(CS(C)(=O)=O)cc2)n1.Cl , state its recorded %Inh.
0

----------
tested on: FLT3; conditions: concentration: 1 μM,replicates: in singlicate; n = 1
property-label: %Inh (%)
Respond numerically; units are % and should not be typed.

Use these answered entries as a reference point.
Given COc1cc(Nc2nccc(N3CCC(NC(=O)c4cccc(C#N)c4)C3)n2)cc(OC)c1OC (stereo not shown) , state its recorded %Inh.
44

Given C[C@@H]1CNc2c(sc3ccc4nc(-c5ccncc5)ccc4c23)C(=O)N1 , state its recorded %Inh.
0

Given O=C(Nc1ccccc1)c1cccc(Oc2ccc3nccn3n2)c1 , state its recorded %Inh.
0

***
Given COc1cc2nccc(Nc3ccc(Oc4ccccc4)cc3)c2cc1OC.Cl , state its recorded %Inh.
69

Given CCCC(=O)Nc1n[nH]c2ncccc12 , state its recorded %Inh.
13

Given Cn1ccc2ncnc(Oc3ccc(NC(=O)Nc4ccnc(C(F)(F)F)c4)c(Cl)c3)c21 , state its recorded %Inh.
64

Given Cc1ccc(Nc2ccnc(Nc3ccc4c(c3)CS(=O)(=O)C4)n2)cc1O.Cl , state its recorded %Inh.
99

Cited source for all entries: paper PMC5540273
